# System: HT29 colon
# assay_explanation: NCI-60 one-dose screen, 48 h
# details: 10 µM unless noted
The panel holds about 83,000 compounds, 20% with a hit somewhere; the sample as a whole holds those more often. Activity calls are given as the source filed them. Rule for the calls: active = growth percent below 10; inactive = the rest.
Classes used: active, inactive

> print(dat)
                                   molecule  assigned.category
1  O=C1[C@H]2Cc3c([nH]c4ccccc34)[C@@H](c3ccc(Cl)cc3)N2C(=O)CN1C1CCN(Cc2ccccc2)CC1           inactive
2  Cc1cc(-c2ccc(Cl)cc2)n(Cc2nnc(SCC(=O)Nc3ccc(S(N)(=O)=O)cc3)n2-c2ccc([N+](=O)[O-])cc2)n1           inactive
3   CCCCCCCn1cc2c(N[C@H](C)c3ccccc3)ncnc2n1           inactive
4  Cn1cc(-c2nc(N)nnc2-c2c[nH]c3ccc(Br)cc23)c2cc(Br)ccc21           inactive
5  O=C(CSc1nnc(-c2ccc3nc(-c4ccccc4)[nH]c3c2)o1)Nc1ccc(C(=O)/C=C/c2ccccc2)cc1           inactive
6  O=C1CCCC2=C1C(c1c[nH]c3ccc(Br)cc13)Cc1cc(Br)ccc1N2 (centres undefined)           inactive
7  COc1ccc2c(c1)c(CC(=O)[Se]CCC#N)c(C)n2C(=O)c1ccc(Cl)cc1             active
8  COc1cc(OC)cc(C(=O)Nc2cccc(C#Cc3cccc4[nH]nc(N)c34)c2)c1             active
9  CNC(=O)c1cc(-c2ccc(NS(=O)(=O)c3ccc(C)cc3)cc2)nc2cccnc12           inactive

----------
Recorded growth by entry
# Test system: SN12C renal
# assay_explanation: NCI-60 one-dose screen, 48 h (100 = growth as untreated, 0 = no growth, -100 = all killed)
# details: 10 µM unless noted
The panel holds about 83,000 compounds, 20% with a hit somewhere; the sample as a whole holds those more often. Activity calls are given as the source filed them. Rule for the calls: active = growth percent below 10; inactive = the rest.
reported_metric: growth

> print(dat)
                                   compound  reported.metric    endpoint.value
1  N#Cc1cccc(/C(N)=N/C(N)=N/c2nc3ccccc3s2)c1           growth  34.9% (inactive)
2  CS(=O)(=O)Nc1cc(-c2ccc3ncc(C#N)c(N[C@H](CO)c4ccccc4)c3c2)cnc1Cl           growth  31.1% (inactive)
3  Cc1cccc(/C=C/C(=O)Nc2ncc(Cc3cccc(C)c3)s2)c1           growth  38.5% (inactive)
4  COc1ccc(CCOc2cc3c(cc2OC)CCN(C(=O)NCc2cocn2)C3c2ccc(C)cc2C)cc1 (stereo not given)           growth  19.7% (inactive)
5  C=CCn1c(SCC(=O)Nc2ccc(C(=O)/C=C/c3cc(OC)c(OC)c(OC)c3)cc2)nnc1-c1c[nH]c2ccccc12           growth  34.1% (inactive)

----------
Recorded growth by entry
# Tested on: HCT-116 colon
# assay_explanation: NCI-60 one-dose screen, 48 h (100 = growth as untreated, 0 = no growth, -100 = all killed)
# details: 10 µM unless noted
This is part of a sample that, as a whole, favours compounds with a hit. Of some 83,000 tested, about 20% had one in any assay.
reported_metric: growth (%)

compound	endpoint_value
CCOC(=O)C1=NNC(c2ccc(Cl)cc2)C1C(=O)N1C(=S)NC(=O)C1CC(C)C (stereo unspecified)	97.8
CC1(C)CC[C@]2(C(=O)O)CC[C@]3(C)C(=CC[C@@H]4[C@@]5(C)CC/C(=N\OCCC#N)C(C)(C)[C@@H]5CC[C@]43C)[C@@H]2C1	96.4
COc1ccc(-c2nc3cc(Cl)c(Cl)cc3n2CC(=O)N=Nc2c(O)[nH]c3ccc(OC)cc23)cc1	39.7
COc1ccc(NC(=O)Nc2ccc3c(ccn3C(=O)c3cccc(F)c3)c2)cc1	45.8
COC(=O)C[Se]C(=O)Cc1c(C)n(C(=O)c2ccc(Cl)cc2)c2ccc(OC)cc12	4.82
NS(=O)(=O)c1ccc(-n2cc(CN3CCCCC3)nn2)cc1	107
COc1ccc2c(c1)Oc1nc(N)c(C#N)c(N)c1C2Sc1ccc(C)cc1 (stereo unspecified)	-69.1
Clc1cccc(/C=N/Nc2nc(N/N=C/c3cccc(Cl)c3Cl)nc(N3CCCCC3)n2)c1Cl	48.8
CCOc1ccccc1NC1=C(Cl)C(=O)c2nc(C)ccc2C1=O	-79.4
CCn1c(SCC(=O)Nc2cccc(C(=O)/C=C/c3ccc(Br)cc3)c2)nc2ccccc2c1=O	28.4
O=S(=O)(NCCCNc1nccc(-c2[nH]c(-c3ccccc3)nc2-c2ccc(Cl)c(O)c2)n1)c1cccc(F)c1	35.4
COc1cc2c(cc1OC)C(Sc1ccc(C)cc1)c1c(nc(N)c(C#N)c1N)O2 (stereo unspecified)	-69.6
COc1c(N2CC3CCCNC3C2)c(F)cc2c(=O)c(C(=O)N/N=C/c3c[nH]c4ccccc34)cn(C3CC3)c12 (stereo unspecified)	56.7
Cc1cc(C)cc(C(=O)Nc2cccc(C#Cc3cccc4[nH]nc(N)c34)c2)c1	43.2
C=C1CC[C@@H]2[C@]3(C)COC(c4ccccc4)O[C@@H]3CC[C@@]2(C)[C@@H]1C/C=C1/C(=O)OC[C@H]1O (stereo partly specified)	38.4
CC/C(=C/c1c(O)cccc1OC)c1ccc2c(OC)cccc2[o+]1	104
N#Cc1cccc(CN2CCC3=C(C2)C(=O)N(Cc2ccc(Cl)cc2)C2=NCCCN23)c1	22.5
COc1cc(Cn2cc3c(c2)-c2onc(CN4CCCC4)c2CC3)cc(OC)c1OC	95.9
CN1CCN(Cc2ccc(NC(=O)c3cncc(C#Cc4cnc5ccc(NCCCO)nn45)c3)cc2C(F)(F)F)CC1	-83.6
CC(=O)N1N=C(c2cccc(-n3cccc3)c2)CC1c1cccc(F)c1 (stereo unspecified)	92.5
CNC(=O)c1cc(-c2ccc(NC(=S)Nc3cc(C(F)(F)F)cc(C(F)(F)F)c3)cc2)nc2cccnc12	99
Cn1ccnc1C(=O)/C=C/c1ccc(CNC(=O)c2ccc(S(F)(F)(F)(F)F)cc2)cc1	-17.1
Cc1nn(-c2ccccc2)c2ncnc(N/N=C/c3ccccc3O)c12	20.9
NC/C(=C/F)COc1ccc2nc(NCc3cccnc3)oc2c1	96.4
CC(=O)c1cc(C(=O)c2ccc(Br)cc2)n2cc(C)cc(C)c12	85.7
COc1ccc(S(=O)(=O)NCCCNc2nccc(-c3cn(C(C)(C)C)nc3-c3ccc(Cl)c(OC)c3)n2)cc1	66.6
CNC(=O)c1cc(N2CCc3cc(NC(=O)Nc4ccc(Cl)c(C(F)(F)F)c4)ccc32)ccn1	39.4
CC(=O)N1C(=S)NC(=O)C1CC(C)C (stereo unspecified)	106
Nc1ccccc1NC(=O)c1ccc(NC(=O)C/C=C/c2cccnc2)cn1	4.69
COc1ccc(-c2nc(C(Cl)Cl)nc3cc(-c4ccccc4)nn23)cc1	1.5
NS(=O)(=O)c1ccc(-n2cc(-c3cccc(NC(=O)c4ccc(N5CCOCC5)c(C(F)(F)F)c4)c3)nn2)cc1	32.5
O=C(CNc1nc(-c2cccc([N+](=O)[O-])c2)cs1)Nc1cccc([N+](=O)[O-])c1	-8.55
CN(C)CCNC(=O)c1ccc(-c2nc3ccc4[nH]ncc4c3c3c2COCC3)cc1	2.59
O=C(O)c1cn(C2CC2)c2cc(N3CCN(C(=O)CN4C(=O)CSC4=O)CC3)c(F)cc2c1=O	98.8
Cc1ccc(NC(=O)N[C@@H](Cc2cc(F)cc(F)c2)C(=O)NC2C(=O)N3C[C@H](O)C[C@H]3C(=O)N3CCCC[C@H]3C(=O)N[C@@H](CO)C(=O)N3C[C@H](C)C[C@H]3C(=O)O[C@H]2C)c(F)c1 (stereo partly specified)	18.1
Cc1ccc(CSc2nc(-c3ccc(Cl)cc3)c(C#N)c(N3CCOCC3)n2)cc1	90

----------
# System: SK-MEL-5 melanoma
# assay_explanation: NCI-60 one-dose screen, 48 h (100 = growth as untreated, 0 = no growth, -100 = all killed)
# details: 10 µM unless noted
Compounds without any hit were thinned out: in the full panel of roughly 83,000, 20% have a hit.
Binary call on growth: 1.0 from 80% upward, 0.0 beneath that.

> print(dat)
                                   compound  assigned.category
1  C[C@H]1c2[nH]c3ccccc3c2C[C@H]2C(=O)N(CCCCCCC(=O)NO)CC(=O)N21                1.0
2  O=C(Nc1ccc(N=Cc2c(O)[nH]c3ccccc23)cc1)Nc1nccs1                0.0
3  COc1c(N2CC3CCCNC3C2)c(F)cc2c(=O)c(C(=O)N/N=C/c3ccc(N(C)C)cc3)cn(C3CC3)c12 (stereo not given)                1.0
4   COc1ccccc1NC1=C(Cl)C(=O)c2nc(C)ccc2C1=O                0.0
5    O=C1/C(=C/C=C/c2ccco2)SC(=S)N1C1CCCCC1                0.0
